# Test system: 922993-354-T-J3-PDC complex spheroids, viability;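 further: spheroids exposed to compounds for seven days; 100% = DMSO vehicle control viability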
# measurement-notes: Anticancer human tumor 922993-354-T-J3-PDC patient-derived endometrial carcinoma cell line growth inhibition [GQUAD]
# condition-description: second compound 0.0316 µM; first compound 10 µM; stronger effect = lower value
# Description: DNA G-quadruplex Stabilizer Agents in Combinations in Complex Spheroids A high-throughput screen of multi-cell type tumor spheroids was designed to identify active combinations of DNA G-quadruplex stabilizer agents and targeted small molecules. […] Compounds. […] If the clinical Cmax for an agent had not been determined, the highest concentration tested was 10 microM. […]
Exercise: state measured viability, T/C for each of the compounds provided.

compound: CC1COCCN1c1cc(C2(O)CC3CCC(C2)O3)c2cnn(-c3ccn[nH]3)c2n1 (stereo not drawn) + Cc1cnc(CNC(=O)c2c(=O)c3ccc(N4CCCN(C)CC4)nc3n3c2sc2ccccc23)cn1
viability, T/C: 18.2%
//
compound: Nc1ccn(C2OC(CO)C(O)C2(F)F)c(=O)n1 (stereo not drawn) + Cc1cnc(CNC(=O)c2c(=O)c3ccc(N4CCCN(C)CC4)nc3n3c2sc2ccccc23)cn1
viability, T/C: 21.7%

Now look at this one.
Query :: Requested read-out: viability, T/C. Entry: Nc1ccn(C2OC(CO)C(O)C2(F)F)c(=O)n1 (stereo not drawn) + Cc1[nH]c2ccc(F)cc2c1-c1nc2c3cccnc3c3ncccc3c2[nH]1
Result :: 21.7%
